Origin of the recorded values: patent US20200317776A1

# Target Or System: human TREM2/DAP12 fusion protein (human, UniProt O43914 41-113, limits assumed)
# Sequence (O43914 other isoform, or with tags, fused parts or gaps limits assumed): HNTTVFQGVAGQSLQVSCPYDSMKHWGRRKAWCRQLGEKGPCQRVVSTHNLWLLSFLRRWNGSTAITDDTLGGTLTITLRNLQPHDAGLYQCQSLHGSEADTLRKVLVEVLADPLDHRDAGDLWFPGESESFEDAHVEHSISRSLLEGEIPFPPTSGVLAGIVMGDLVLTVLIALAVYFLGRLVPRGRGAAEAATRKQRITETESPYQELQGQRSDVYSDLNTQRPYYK
# Measurement Notes: cell-based or functional assay
Give Condition met when the value for Luciferase activation plate bound 33 nM IgG, FOC is at least 9 FOC. Give Condition not met when it is less.

Past entries and their recorded results:
{"columns": ["Binder", "Discrete Label"],
 "data": [
  ["AL2p-16 (antibody, V domains shown, Fab and IgG formats under one id) VH: QVQLVQSGAEVKKPGSSVKVSCKASGYAFSSHWMNWVRQAPGQGLEWMGRIYPGDGDTNYAQKFRGRVTITADESTSTAYMELSSLRSEDTAVYYCARLLRNQPGASYAMDYWGQGTLVTVSS VL: GVVMTQTPLSLSVTPGQPASISCRTSQSLVHSNGYTYLHWYLQKPGQSPQLLIYKVSNRVSGVPDRFSGSGSGTDFTLKISRVEAEDVGVYYCSQSTRVPYTFGQGTKLEIK", "Condition met"],
  ["AL2p-36 (antibody, V domains shown, Fab and IgG formats under one id) VH: QVQLVQSGAEVKKPGASVKVSCKASGYAFSSSWMNWVRQAPGQRLEWIGRIYPGDGDTNYARKFQGRVTITADTSASTAYMELSSLRSEDTAVYYCARLLRNQPGASYAMDYWGQGTLVTVSS VL: DVVMTQSPDSLAVSLGERATINCRSSQSLVHSNGYTYLHWYQQKPGQSPKLLIYKVSNRFSGVPDRFSGSGSGTDFTLTISSLQAEDVAVYYCSQSTRVPYTFGGGTKVEIK", "Condition met"],
  ["AL2p-6 (antibody, V domains shown, AL2p-h50 variant; Fab and IgG formats under one id) VH: QVQLVQSGAEVKKPGSSVKVSCKASGYAFSSSWMNWVRQAPGQGLEWMGRIYPGDGDTNYAQKFQGRVTITADESTSTAYMELSSLRSEDTAVYYCARLLRNQPGESYAMDYWGQGTLVTVSS VL: DVVMTQTPLSLSVTPGQPASISCRSSQSLVHSNWYTYLHWYLQKPGQSPQLLIYKVSNRFSGVPDRFSGSGSGTDFTLKISRVEAEDVGVYYCSQSTRVPYTFGQGTKLEIK", "Condition not met"],
  ["AL2p-11 (antibody, V domains shown, Fab and IgG formats under one id) VH: QVQLVQSGAEVKKPGSSVKVSCKASGYAFSSDWMNWVRQAPGQGLEWMGRIYPGDGDTNYARKFQGRVTITADESTSTAYMELSSLRSEDTAVYYCARLLRNQPGESYAMDYWGQGTLVTVSS VL: DVVMTQTPLSLSVTPGQPASISCRSSRSLVHSNGYTYLHWYLQKPGQSPQLLIYKVSNRVSGVPDRFSGSGSGTDFTLKISRVEAEDVGVYYCSQSTRVPYTFGQGTKLEIK", "Condition met"],
  ["AL2p-h50 (antibody, human IgG1, V domains shown, humanized, human IgG1; Fab and IgG formats under one id) VH: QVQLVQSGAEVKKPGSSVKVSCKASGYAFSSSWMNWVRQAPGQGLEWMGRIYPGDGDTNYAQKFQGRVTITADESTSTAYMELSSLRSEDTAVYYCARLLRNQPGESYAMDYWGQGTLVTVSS VL: DVVMTQTPLSLSVTPGQPASISCRSSQSLVHSNGYTYLHWYLQKPGQSPQLLIYKVSNRFSGVPDRFSGSGSGTDFTLKISRVEAEDVGVYYCSQSTRVPYTFGQGTKLEIK", "Condition not met"],
  ["AL2p-22 (antibody, V domains shown, Fab and IgG formats under one id) VH: QVQLVQSGAEVKKPGSSVKVSCKASGYAFSSHWMNWVRQAPGQGLEWMGRIYPGDGDTNYAYKFQGRVTITADESTSTAYMELSSLRSEDTAVYYCARLLRNQPGESYAMDYWGQGTLVTVSS VL: GVVMTQTPLSLSVTPGQPASISCRSSRSLVHSNGYTYLHWYLQKPGQSPQLLIYKVSNRRSGVPDRFSGSGSGTDFTLKISRVEAEDVGVYYCSQSTRVPYTFGQGTKLEIK", "Condition met"]
]}

// switching to the query binder
Inquiry: Could you verify whether the entry AL2p-19 (antibody, V domains shown, Fab and IgG formats under one id) VH: QVQLVQSGAEVKKPGSSVKVSCKASGYAFSSHWMNWVRQAPGQGLEWMGRIYPGDGDTNYARKFQGRVTITADESTSTAYMELSSLRSEDTAVYYCARLLRNQPGESYAMDYWGQGTLVTVSS VL: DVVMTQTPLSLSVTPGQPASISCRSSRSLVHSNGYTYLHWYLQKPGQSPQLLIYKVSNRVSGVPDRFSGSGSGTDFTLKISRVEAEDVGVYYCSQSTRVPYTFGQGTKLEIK shows Luciferase activation plate bound 33 nM IgG, FOC of no less than 9 FOC?
Reply text: Condition met
